Taken from ChEMBL document CHEMBL5727966.

- Protocol Text: Aequorin-Based Luminescent Assay : An aequorin-based luminescent assay for calcium mobilization was used to measure mobilization of intracellular Ca2+ (Bullock et al., Mol Pharmacol 65, 582-588, 2004). Chinese hamster ovary (CHO) cells stably expressing photoprotein aequorin and recombinant PKR1 or PKR2 were tested by this method. Briefly, the cells were charged in Opti-MEM™ (Invitrogen) containing 8 μM of coelenterazine cp at 37° C. for 2 hours. Cells were detached by brief trypsinization and maintained in Hank's Balanced Salt Solution (HBSS) plus 10 mM HEPES (pH7.5) and 0.1% BSA at about 5×10^5 cells/ml. Luminescence measurements were made using a Berthold luminometer.All compounds were diluted in HBSS plus 10 mM HEPES (pH7.5) and 0.1% BSA. To test the agonist activity, 100 μl of cells were injected into the tubes with 20 μl of compounds. For antagonist assays, 80 μl cells were incubated in the tubes with 20 μl different concentrations of antagonists at room temperature for 20 minutes, and then 100 μl of recombinant PK2 were injected. The IC50 obtained from the assays were then converted to Ki values using the formula: IC50/(1+[PK2]/EC50PK2).
- Format: cell-based
Metric: Ki

// query Which value of Ki has been reported for CC(C)CN(Cc1cc(Cl)c2c(c1)OCCCO2)C(=O)C1CN(Cc2cccc3nc[nH]c23)CCO1 (stereo unspecified) in the records?
// result 8.4 nM
